We begin with a simple list: items and their reported kinase still bound, per cent of control.
tested on: EGFR (human), P00533 [L858R]; experiment: KINOMEscan competition binding; conditions: compound 10.0 µM

[
  {
    "molecule": "COc1cc(C(=O)NC2CCN(C)CC2)ccc1Nc1ncc2c(n1)N(C1CCCC1)C(C)CC(=O)N2C (stereo not drawn)",
    "target_or_system": "EGFR (human), P00533 [L858R]",
    "kinase still bound, per cent of control (%)": 100
  },
  {
    "molecule": "CCC(=O)N1CCN(c2ccc(-n3c(=O)ccc4cnc5ccc(-c6cnc7ccccc7c6)cc5c43)cc2C(F)(F)F)CC1",
    "target_or_system": "EGFR (human), P00533 [L858R]",
    "kinase still bound, per cent of control (%)": 100
  },
  {
    "molecule": "N#Cc1cc(-c2ccnc(Nc3ccc(-n4cnc(-c5cccnc5)n4)cc3)n2)cc(N2CCOCC2)c1",
    "target_or_system": "EGFR (human), P00533 [L858R]",
    "kinase still bound, per cent of control (%)": 54
  },
  {
    "molecule": "Cc1cn(-c2cc(C(=O)Nc3ccc(C)c(NC(=O)c4ccno4)c3)cc(C(F)(F)F)c2)cn1",
    "target_or_system": "EGFR (human), P00533 [L858R]",
    "kinase still bound, per cent of control (%)": 100
  },
  {
    "molecule": "COc1cc(N2CCC(C(N)=O)CC2)ccc1Nc1nc(N)c(Cl)c(Nc2ccccc2S(=O)(=O)C(C)C)n1",
    "target_or_system": "EGFR (human), P00533 [L858R]",
    "kinase still bound, per cent of control (%)": 0.3
  },
  {
    "molecule": "CCN1CCN(C(=O)Cc2ccc(Nc3ncc(F)c(Nc4ccc(C(=O)Nc5ccccc5Cl)cc4)n3)cc2)CC1",
    "target_or_system": "EGFR (human), P00533 [L858R]",
    "kinase still bound, per cent of control (%)": 28
  },
  {
    "molecule": "C=CC(=O)Nc1cccc(Oc2nc(Nc3ccc(N4CCN(C)CC4)cc3OC)ncc2Cl)c1",
    "target_or_system": "EGFR (human), P00533 [L858R]",
    "kinase still bound, per cent of control (%)": 0.1
  },
  {
    "molecule": "CNC(=O)c1ccc(Nc2cc(Nc3ccccc3S(=O)(=O)C(C)C)c3cc[nH]c3n2)nc1",
    "target_or_system": "EGFR (human), P00533 [L858R]",
    "kinase still bound, per cent of control (%)": 100
  },
  {
    "molecule": "Nc1ccc(-c2ccc3ncc4ccc(=O)n(-c5cccc(C(F)(F)F)c5)c4c3c2)cn1",
    "target_or_system": "EGFR (human), P00533 [L858R]",
    "kinase still bound, per cent of control (%)": 100
  },
  {
    "molecule": "Cn1c(=O)n(-c2ccc(C(C)(C)C#N)cc2)c2c3cc(-c4cnc5ccccc5c4)ccc3ncc21",
    "target_or_system": "EGFR (human), P00533 [L858R]",
    "kinase still bound, per cent of control (%)": 100
  },
  {
    "molecule": "N#CCNC(=O)c1ccc(-c2ccnc(Nc3ccc(N4CCOCC4)cc3)n2)cc1",
    "target_or_system": "EGFR (human), P00533 [L858R]",
    "kinase still bound, per cent of control (%)": 100
  },
  {
    "molecule": "CN(C)C/C=C/C(=O)Nc1ccc(C(=O)Nc2cccc(Nc3nccc(-c4cccnc4)n3)c2)cc1",
    "target_or_system": "EGFR (human), P00533 [L858R]",
    "kinase still bound, per cent of control (%)": 99
  },
  {
    "molecule": "Cc1ccc(C(=O)Nc2cccc(C(F)(F)F)c2)cc1Nc1cncc(C(N)=O)c1",
    "target_or_system": "EGFR (human), P00533 [L858R]",
    "kinase still bound, per cent of control (%)": 100
  },
  {
    "molecule": "COc1ccc(N(C(=O)Oc2cc(C(=O)Nc3cccc(C(F)(F)F)c3)ccc2C)c2ccnc(Nc3ccc(N4CCN(C)CC4)cc3)n2)c(OC)c1",
    "target_or_system": "EGFR (human), P00533 [L858R]",
    "kinase still bound, per cent of control (%)": 2.4
  },
  {
    "molecule": "COc1cc(N2CCN(C)CC2)ccc1Nc1ncc2c(n1)N(C)c1ccccc1C(=O)N2C",
    "target_or_system": "EGFR (human), P00533 [L858R]",
    "kinase still bound, per cent of control (%)": 100
  },
  {
    "molecule": "C=CC(=O)Nc1cc(-n2c(=O)ccc3cnc4ccc(-c5cn[nH]c5)cc4c32)ccc1C",
    "target_or_system": "EGFR (human), P00533 [L858R]",
    "kinase still bound, per cent of control (%)": 41
  },
  {
    "molecule": "C=CC(=O)Nc1ccc(C(=O)c2sc(Nc3ccc(N4CCN(C)CC4)cc3OC)nc2N)cc1",
    "target_or_system": "EGFR (human), P00533 [L858R]",
    "kinase still bound, per cent of control (%)": 39
  },
  {
    "molecule": "CS(=O)(=O)N1CCN(Cc2cc3nc(-c4cccc5[nH]ncc45)nc(N4CCOCC4)c3s2)CC1",
    "target_or_system": "EGFR (human), P00533 [L858R]",
    "kinase still bound, per cent of control (%)": 100
  }
]

###

target: RIOK2 (human) (UniProt Q9BVS4); assay: KINOMEscan competition binding; details: compound 10.0 µM
Sequence (Q9BVS4 whole entry, looked up): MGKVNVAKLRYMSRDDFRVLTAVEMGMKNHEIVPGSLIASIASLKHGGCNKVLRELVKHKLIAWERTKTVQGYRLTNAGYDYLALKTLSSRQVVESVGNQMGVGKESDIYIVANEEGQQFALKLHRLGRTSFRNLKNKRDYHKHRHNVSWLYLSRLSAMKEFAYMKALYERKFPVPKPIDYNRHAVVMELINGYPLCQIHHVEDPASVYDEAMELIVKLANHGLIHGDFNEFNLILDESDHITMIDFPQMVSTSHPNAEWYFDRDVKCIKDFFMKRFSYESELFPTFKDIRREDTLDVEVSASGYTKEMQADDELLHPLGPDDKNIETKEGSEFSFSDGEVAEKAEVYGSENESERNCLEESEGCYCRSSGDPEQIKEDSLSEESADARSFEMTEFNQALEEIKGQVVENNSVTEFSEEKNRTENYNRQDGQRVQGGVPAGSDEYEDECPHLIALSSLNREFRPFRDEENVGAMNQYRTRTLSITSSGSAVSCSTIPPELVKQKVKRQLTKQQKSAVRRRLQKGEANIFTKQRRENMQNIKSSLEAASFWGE
Listing: kinase still bound, per cent of control of selected compounds
measured_attribute: kinase still bound, per cent of control (%)

[
  {
    "structure_string": "O=c1[nH]c2ccccc2n1C1CCN(Cc2ccc(-c3nc4cc5[nH]cnc5cc4nc3-c3ccccc3)cc2)CC1",
    "measured_attribute": "kinase still bound, per cent of control",
    "data_value": 79
  },
  {
    "structure_string": "N#Cc1cc(-c2ccnc(Nc3ccc(-n4cnc(-c5cccnc5)n4)cc3)n2)cc(N2CCOCC2)c1",
    "measured_attribute": "kinase still bound, per cent of control",
    "data_value": 1.4
  },
  {
    "structure_string": "N#C/C(=C1/Nc2ccccc2S1)c1ccnc(NCCc2cccnc2)n1",
    "measured_attribute": "kinase still bound, per cent of control",
    "data_value": 2.4
  },
  {
    "structure_string": "COc1cc(N2CCC(C(N)=O)CC2)ccc1Nc1nc(N)c(Cl)c(Nc2ccccc2S(=O)(=O)C(C)C)n1",
    "measured_attribute": "kinase still bound, per cent of control",
    "data_value": 100
  },
  {
    "structure_string": "Cc1cn(-c2cc(C(=O)Nc3ccc(C)c(NC(=O)c4ccno4)c3)cc(C(F)(F)F)c2)cn1",
    "measured_attribute": "kinase still bound, per cent of control",
    "data_value": 100
  }
]

###

Listed compounds paired with reported kinase still bound, per cent of control
molecular target: LIMK2 (human); experiment: KINOMEscan competition binding; details: compound 10.0 µM
measured_attribute: kinase still bound, per cent of control (%)

[
  {
    "compound": "CC(=O)c1c(C)c2cnc(Nc3ccc(N4CCNCC4)cn3)nc2n(C2CCCC2)c1=O",
    "target_or_system": "LIMK2 (human)",
    "measured_attribute": "kinase still bound, per cent of control",
    "data_value": 90
  },
  {
    "compound": "N#C/C(=C1/Nc2ccccc2S1)c1ccnc(NCCc2cccnc2)n1",
    "target_or_system": "LIMK2 (human)",
    "measured_attribute": "kinase still bound, per cent of control",
    "data_value": 96
  },
  {
    "compound": "COc1cc(C)c(Sc2cnc(NC(=O)c3ccc(CNC(C)C(C)C)cc3)s2)cc1C(=O)N1CCN(C(C)=O)CC1 (stereo not drawn)",
    "target_or_system": "LIMK2 (human)",
    "measured_attribute": "kinase still bound, per cent of control",
    "data_value": 100
  },
  {
    "compound": "COc1cc2ncnc(Nc3cccc(Cl)c3)c2cc1OC",
    "target_or_system": "LIMK2 (human)",
    "measured_attribute": "kinase still bound, per cent of control",
    "data_value": 100
  },
  {
    "compound": "N#Cc1cc(-c2ccnc(Nc3ccc(-n4cnc(-c5cccnc5)n4)cc3)n2)cc(N2CCOCC2)c1",
    "target_or_system": "LIMK2 (human)",
    "measured_attribute": "kinase still bound, per cent of control",
    "data_value": 60
  },
  {
    "compound": "CC1=C(C(=O)Nc2cc3cn[nH]c3cc2F)C(c2ccc(C(F)(F)F)cc2)CC(=O)N1 (stereo not drawn)",
    "target_or_system": "LIMK2 (human)",
    "measured_attribute": "kinase still bound, per cent of control",
    "data_value": 89
  },
  {
    "compound": "COc1cc(N2CCC(C(N)=O)CC2)ccc1Nc1nc(N)c(Cl)c(Nc2ccccc2S(=O)(=O)C(C)C)n1",
    "target_or_system": "LIMK2 (human)",
    "measured_attribute": "kinase still bound, per cent of control",
    "data_value": 100
  },
  {
    "compound": "COc1cc2c(Nc3ccc(NC(=O)c4ccccc4)cc3)ncnc2cc1OCCCN1CCOCC1",
    "target_or_system": "LIMK2 (human)",
    "measured_attribute": "kinase still bound, per cent of control",
    "data_value": 78
  },
  {
    "compound": "CCc1nc(-c2cccc(C)c2)c(-c2ccnc(NC(=O)c3ccccc3)c2)s1",
    "target_or_system": "LIMK2 (human)",
    "measured_attribute": "kinase still bound, per cent of control",
    "data_value": 94
  },
  {
    "compound": "CCN1CCN(Cc2ccc(NC(=O)c3ccc(C)c(/C=C/c4cnc5[nH]ccc5c4OC)c3)cc2C(F)(F)F)CC1",
    "target_or_system": "LIMK2 (human)",
    "measured_attribute": "kinase still bound, per cent of control",
    "data_value": 2.9
  },
  {
    "compound": "O=c1[nH]c2ccccc2n1C1CCN(Cc2ccc(-c3nc4cc5[nH]cnc5cc4nc3-c3ccccc3)cc2)CC1",
    "target_or_system": "LIMK2 (human)",
    "measured_attribute": "kinase still bound, per cent of control",
    "data_value": 100
  },
  {
    "compound": "Cc1cn(-c2cc(C(=O)Nc3ccc(C)c(NC(=O)c4ccno4)c3)cc(C(F)(F)F)c2)cn1",
    "target_or_system": "LIMK2 (human)",
    "measured_attribute": "kinase still bound, per cent of control",
    "data_value": 100
  },
  {
    "compound": "CCCS(=O)(=O)Nc1ccc(F)c(C(=O)c2c[nH]c3ncc(Cl)cc23)c1F",
    "target_or_system": "LIMK2 (human)",
    "measured_attribute": "kinase still bound, per cent of control",
    "data_value": 24
  },
  {
    "compound": "C=CC(=O)Nc1ccc(C(=O)c2sc(Nc3ccc(N4CCN(C)CC4)cc3OC)nc2N)cc1",
    "target_or_system": "LIMK2 (human)",
    "measured_attribute": "kinase still bound, per cent of control",
    "data_value": 100
  },
  {
    "compound": "COc1ccc(N(C(=O)Oc2cc(C(=O)Nc3cccc(C(F)(F)F)c3)ccc2C)c2ccnc(Nc3ccc(N4CCN(C)CC4)cc3)n2)c(OC)c1",
    "target_or_system": "LIMK2 (human)",
    "measured_attribute": "kinase still bound, per cent of control",
    "data_value": 0
  },
  {
    "compound": "CCOc1cc(N2CCC(O)CC2)ccc1Nc1ncc2c(n1)N(C)c1ccccc1C(=O)N2C",
    "target_or_system": "LIMK2 (human)",
    "measured_attribute": "kinase still bound, per cent of control",
    "data_value": 100
  },
  {
    "compound": "CNC(=O)Nc1ccc(-c2nc(N3CC4CCC(C3)O4)c3cnn(C4CCC5(CC4)OCCO5)c3n2)cc1",
    "target_or_system": "LIMK2 (human)",
    "measured_attribute": "kinase still bound, per cent of control",
    "data_value": 88
  },
  {
    "compound": "CCN(CCO)CCCOc1ccc2c(Nc3cc(CC(=O)Nc4cccc(F)c4)[nH]n3)ncnc2c1",
    "target_or_system": "LIMK2 (human)",
    "measured_attribute": "kinase still bound, per cent of control",
    "data_value": 100
  }
]
